EXPERIMENTAL_PROTOCOL: amyloid nucleation score (Sup35N fusion, yeast selection) (log enrichment); library NNK2; higher = more nucleation; inactive = no reads after selection;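 note: zero at mode of non-aggregating sequences after 7 days selection at 30°C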
MEASUREMENT_TYPE: amyloid nucleation score
Format: numeric value only, no unit, no commentary.

INPUT: Could you tell me which amyloid nucleation score is on file for VWMHMSGSIIKSWFLVRCFS ?
OUTPUT: -0.506

INPUT: Could you tell me which amyloid nucleation score is on file for LRLWHDYSFFLNKVSQVHSY ?
OUTPUT: -1.12

INPUT: Could you tell me which amyloid nucleation score is on file for ILYLGHN ?
OUTPUT: -1.61

INPUT: Could you tell me which amyloid nucleation score is on file for SLFRVKGAVLEVLVPRMLLY ?
OUTPUT: 0.51

INPUT: Could you tell me which amyloid nucleation score is on file for VFTCGVVPYPYKNTLKYKCF ?
OUTPUT: -0.319

INPUT: Could you tell me which amyloid nucleation score is on file for AECNRHLLQAVSLY ?
OUTPUT: -0.256

INPUT: Could you tell me which amyloid nucleation score is on file for TFYCTSCFLLMSVMSFHRLL ?
OUTPUT: 1.89

INPUT: Could you tell me which amyloid nucleation score is on file for IGTLSRNERASRNTHWDILT ?
OUTPUT: 0.757

INPUT: Could you tell me which amyloid nucleation score is on file for SYHRQRSNTFTAKLQCSRSW ?
OUTPUT: 0.307

INPUT: Could you tell me which amyloid nucleation score is on file for LCLRDFSFDGLVGSR ?
OUTPUT: 0.119

INPUT: Could you tell me which amyloid nucleation score is on file for NLLYKMTMWTKFGRLSSCCK ?
OUTPUT: 0.001

INPUT: Could you tell me which amyloid nucleation score is on file for FRRLNTATRRCVTSG ?
OUTPUT: -1.13

INPUT: Could you tell me which amyloid nucleation score is on file for TFSQYTWEFIYN ?
OUTPUT: 3.68

INPUT: Could you tell me which amyloid nucleation score is on file for VLPTEYSGFFSTRQLPSLDS ?
OUTPUT: 0.137

INPUT: Could you tell me which amyloid nucleation score is on file for VSRDLEVH ?
OUTPUT: -0.001

INPUT: Could you tell me which amyloid nucleation score is on file for RVPGRDALSIASWLQSTGQV ?
OUTPUT: 1.03

INPUT: Could you tell me which amyloid nucleation score is on file for NVWVSDFVGERAGDLHLSLY ?
OUTPUT: 0.025

INPUT: Could you tell me which amyloid nucleation score is on file for FDVESMSNDLMAQWHKMLAC ?
OUTPUT: -0.452

INPUT: Could you tell me which amyloid nucleation score is on file for SVYMLRLNYYSFVVLRQTGA ?
OUTPUT: -0.135

INPUT: Could you tell me which amyloid nucleation score is on file for SFCWRYMCRFVMDSFITVPR ?
OUTPUT: -0.423

INPUT: Could you tell me which amyloid nucleation score is on file for SDSTSVLPGRTYWVHFSAQG ?
OUTPUT: 0.086

INPUT: Could you tell me which amyloid nucleation score is on file for DYTSCEDVLSVVRPWNYNVE ?
OUTPUT: 0.714

###

EXPERIMENTAL_PROTOCOL: amyloid nucleation score (Sup35N fusion, yeast selection) (log enrichment); library NNK2; higher = more nucleation; inactive = no reads after selection
Class 1: amyloid nucleation score at least 3. Class 0: amyloid nucleation score below 3.

INPUT: Check this sequence for amyloid nucleation score at or above 3: CNIVNFMWAGENFR
OUTPUT: 1

INPUT: Check this sequence for amyloid nucleation score at or above 3: IGSVDDLNLKRICNDLDTP
OUTPUT: 0

INPUT: Check this sequence for amyloid nucleation score at or above 3: SYIGMNQNCFSEQLNNAQTG
OUTPUT: 0

INPUT: Check this sequence for amyloid nucleation score at or above 3: YLSGYRLRTVVAVDTGMWYV
OUTPUT: 0

INPUT: Check this sequence for amyloid nucleation score at or above 3: CILYKEACEIVIFPGFTVAN
OUTPUT: 0

INPUT: Check this sequence for amyloid nucleation score at or above 3: SVVVNPCLLA
OUTPUT: 0

###

EXPERIMENTAL_PROTOCOL: amyloid nucleation score (Sup35N fusion, yeast selection) (log enrichment); library NNK1; higher = more nucleation; inactive = no reads after selection
MEASUREMENT_TYPE: amyloid nucleation score

Study these solved cases before continuing.
SUBSTANCE	amyloid nucleation score
PNIRHYVYNHN	inactive
NAMVDGQGILIHSL	inactive
DKGVFAMDKRITMVEFLS	-0.87
LWLLYVIECHLGCYRTVLMG	-0.385
LRYFDFCISRLDSEGN	0.264

INPUT: Could you tell me which amyloid nucleation score is on file for RNSMGLLAVEDVC ?
OUTPUT: -1.16

INPUT: Could you tell me which amyloid nucleation score is on file for NDLAKHLGFTVTF ?
OUTPUT: 0.011

INPUT: Could you tell me which amyloid nucleation score is on file for ENFPPAQ ?
OUTPUT: -0.691

INPUT: Could you tell me which amyloid nucleation score is on file for FDSQDSISFGDGTFKSVWPM ?
OUTPUT: 0.177

###

EXPERIMENTAL_PROTOCOL: amyloid nucleation score (Sup35N fusion, yeast selection) (log enrichment); library NNK1; higher = more nucleation; inactive = no reads after selection
Class fulfilled: amyloid nucleation score at least 0.2. Class not fulfilled: amyloid nucleation score below 0.2.

INPUT: Check this substance for amyloid nucleation score at or above 0.2: TDNMWCSNVIFLECTN
OUTPUT: fulfilled

INPUT: Check this substance for amyloid nucleation score at or above 0.2: QIRGGGAGSDSVDGHRALEA
OUTPUT: fulfilled

INPUT: Check this substance for amyloid nucleation score at or above 0.2: DARLFDFYFANLVSSQGNCF
OUTPUT: fulfilled

INPUT: Check this substance for amyloid nucleation score at or above 0.2: RSFNYVLSTL
OUTPUT: fulfilled

INPUT: Check this substance for amyloid nucleation score at or above 0.2: IHDAYVTESGYWVDV
OUTPUT: fulfilled

INPUT: Check this substance for amyloid nucleation score at or above 0.2: CILGWKYLDVVYDQRRLRCG
OUTPUT: fulfilled

INPUT: Check this substance for amyloid nucleation score at or above 0.2: YNNSLWPIRLVRSKQCLSWT
OUTPUT: fulfilled

INPUT: Check this substance for amyloid nucleation score at or above 0.2: TSMWTYY
OUTPUT: fulfilled

INPUT: Check this substance for amyloid nucleation score at or above 0.2: LVVFATSVGSGGFKVWGHPG
OUTPUT: not fulfilled

INPUT: Check this substance for amyloid nucleation score at or above 0.2: SWLDLNLIDHQAFAFSSFGQ
OUTPUT: not fulfilled

INPUT: Check this substance for amyloid nucleation score at or above 0.2: RDRNNCYFSDDSNLREAT
OUTPUT: not fulfilled

INPUT: Check this substance for amyloid nucleation score at or above 0.2: TSHSGIEFRLEFARSSPPSQ
OUTPUT: not fulfilled

###

EXPERIMENTAL_PROTOCOL: amyloid nucleation score (Sup35N fusion, yeast selection) (log enrichment); library NNK3; higher = more nucleation; inactive = no reads after selection
MEASUREMENT_TYPE: amyloid nucleation score

Study these solved cases before continuing.
SUBSTANCE	OBSERVED
ASATAYSVNLRLKVTVNM	1.71
RYVRCNRMWIIDLDEHARGK	inactive
IKQGYRAHLWWIVVNRLMFD	inactive
CLKVSTKCFW	0.097
SSFPGWDIECIC	inactive
RGIEVMDLTLARAHKRA	inactive

INPUT: Could you tell me which amyloid nucleation score is on file for RGNDLIVCCGDRMCFCNALS ?
OUTPUT: inactive

INPUT: Could you tell me which amyloid nucleation score is on file for ILTCFFSQEMIWHFLDTYDY ?
OUTPUT: 0.522

INPUT: Could you tell me which amyloid nucleation score is on file for VMQHNVGLFNDHKYDSCRAC ?
OUTPUT: inactive

###

EXPERIMENTAL_PROTOCOL: amyloid nucleation score (Sup35N fusion, yeast selection) (log enrichment); library NNK3; higher = more nucleation; inactive = no reads after selection
MEASUREMENT_TYPE: amyloid nucleation score

Study these solved cases before continuing.
SUBSTANCE	amyloid nucleation score
VGFILWFGGHCGS	0.659
LVYNQVVHRFLTLVFLSYMS	inactive
SGSWHKH	inactive
IWCQRYYAIGRRVPKASYDG	-0.179
SELHRNRPTKLGFCRYESQV	inactive
ILEYAVVNHQVNLVIVSIGH	1.65

INPUT: Could you tell me which amyloid nucleation score is on file for QFKLHCYRGMVVNHSLMCDT ?
OUTPUT: inactive

INPUT: Could you tell me which amyloid nucleation score is on file for SSRAAVY ?
OUTPUT: inactive

INPUT: Could you tell me which amyloid nucleation score is on file for YVWIDYSSVYMD ?
OUTPUT: inactive

INPUT: Could you tell me which amyloid nucleation score is on file for LSCNDYNDG ?
OUTPUT: inactive
